// values below are reported growth
# Tested on: SNB-75 CNS
# protocol: NCI-60 one-dose screen, 48 h (100 = growth as untreated, 0 = no growth, -100 = all killed)
# experimental context: 10 µM unless noted
# Experimental: Growth inhibition of the SNB-75 human tumor cell line is measured as a screen for anti-cancer activity. Cells are grown in 96 well plates and exposed to the test compound for 48 hours. Compounds are tested at a single concentration, which is 10^-5 M for most compounds. The reported endpoint is percent growth (GI% or GIPRCNT), where numbers from 0 - 100% represent growth inhibition, and numbers from -100% - 0 represent cell death. For example, a value of 40 represents 60% growth inhibition. […]
The panel holds about 83,000 compounds, 20% with a hit somewhere; the sample as a whole holds those more often.
Your answer should be a plain number; it is taken to be in %.

Solved entries (count: 5):
- compound: "N#C/C(=C\\c1ccc(C(F)(F)F)cc1)c1cc2ccccc2[nH]1"
  growth [%]: 89
- compound: "O=S(=O)(NCCNc1nccc(-c2c(-c3cccc(O)c3)nc3occn23)n1)c1cccc(F)c1"
  growth [%]: 80.6
- compound: "Oc1c(Cl)cc(Cl)c(Cl)c1CNCCNCc1c(O)c(Cl)cc(Cl)c1Cl"
  growth [%]: 51.9
- compound: "COc1cc2c(-c3cc4c(cc3CNCCc3ccc5c(c3)OCO5)OCO4)cccc2c(OC)c1O"
  growth [%]: 44.9
- compound: "CCCCCCCC(=O)OCC/C=C/C1OC1C1OC(=O)/C=C\\C=C\\C(=O)N(C(C)=O)C(=O)/C=C(/C)CCC2OC2C1OC(=O)NC(C)=O (stereo not given)"
  growth [%]: 79.3

Please examine the following record next.
Endpoint output: growth of Cn1ccnc1C(=O)/C=C/c1ccc(CC(=O)Nc2ccc(Cl)cc2)cc1 . Value?
11.8
